src = PubChem BioAssay

Measured viability of individual entries
test: SK-BR-3 cell growth inhibitors, pilot screen, 24 h, human (AID 572); conditions: SK-BR-3 viability, CellTiter-Glo luminescence, at 10 µM, active compounds read low;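 further: compound exposure lasted between 18 and 24 h rather than exactly 24 h; 100% = carrier-treated control wells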
// units = %; emit number, no label

Some compounds with recorded viability:
Task: # input compound: COCCn1nnnc1C(c1ccc(OC)cc1)N1CCN(c2ccccc2F)CC1 (stereo not given) ; wanted: its viability
Output: 100

Task: Another compound to look at: Fc1ccccc1C(c1nnnn1Cc1ccc2c(c1)OCO2)N1CCN(Cc2ccccc2)CC1 (stereo not given)
Output: 121

Task: Now give it for "Cc1ccc(-c2nn3c(=O)c(C)nnc3s2)cc1" too.
Output: 112

Task: Next record, please: "COc1ccc(NC(=O)c2cc(C)on2)cc1OC"
Output: 110

Task: Next compound: "Cc1cc(NC(=O)CCOc2ccccc2)no1"
Output: 85.5

Task: Please give the result for "COc1ccc(CCNC(=O)C2CCN(C(=O)N(C)C)CC2)cc1OC" too.
Output: 86.5

Task: Now the same for "Cc1ccc(NC(=O)c2cc(S(=O)(=O)N3CCC4(CC3)OCCO4)ccc2F)cc1"
Output: 101

Task: Also "Cc1c(Cl)cccc1N1C(=O)c2ccccc2C1=O" , if possible.
Output: 89.5

More entries:
Task: Recorded viability for "CC(C)Cn1c(-c2ccc(F)cc2)n[nH]c1=S" , please?
Output: 114

Task: Now give it for "COc1ccccc1NC(=O)CSc1nnnn1-c1ccc2c(c1)OCO2" too.
Output: 92

Task: Please do the same for "COCCCNS(=O)(=O)c1ccc2c(c1)CCN2C(C)=O" as well.
Output: 97

Task: Another: "O=C(Nc1ccc(OC(=O)c2ccco2)cc1)c1ccco1"
Output: 96.5

Task: Now give it for "COc1ccc(C2=NO[C@@H]3C(=O)N(c4ccc5c(c4)OCCO5)C(=O)[C@H]23)cc1OC" too.
Output: 85

----------
assay: growth inhibitors of H69AR lung tumor, primary screen, human, duplicate replicates (AID 580); conditions: H69AR lung tumor cells viability, ATP luminescence, 72 h; at 10 µM; active compounds read low;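 further: 100% = mean luminescence of untreated wells and 0% = no signal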
Entries and their viability
Numeric answer only, unit % assumed.

Sample answers from the record:
Task: Tell me the measured viability of COc1ccc2c(c1OC)C(=O)OC2Nn1cncn1 (stereo unspecified) , please.
Output: 103

Task: Next record, please: "Cc1ccc(NC(=O)CSc2nnc(NC(=O)CN3CCOCC3)s2)cc1"
Output: 94.1

Task: Another molecule to check: "O=C(NCCO)c1cccc2c1C(=O)c1ccccc1-2"
Output: 101

Task: Also "CC(=O)c1ccc(-c2nc3ccccc3n2C)o1" , if possible.
Output: 72.7

More entries:
Task: Item under review: "Cn1c(=O)n(C)c2cc(CNc3ccc(N4CCOCC4)c(C(=O)O)c3)ccc21" . Reported viability?
Output: 89.6

Task: Same thing, different molecule: O=C(C1CC1)N1CCC(c2nc(-c3ccc(S(=O)(=O)NCC4CCCO4)cc3)no2)CC1 (stereo unspecified)
Output: 90.6

Task: Same lookup for "CC1=C(c2ccc(Cl)cc2)[N+](=O)C(C)(C)N1[O-]" , please.
Output: 89.6

Task: Next: "Cc1oc2nc(SCCCC(=O)NCCCO)nc(N)c2c1C"
Output: 107

Task: Now try CCS(=O)(=O)N1CCCC(C(=O)NCc2ccccc2Cl)C1 (stereo unspecified) .
Output: 94.7

Task: Lookup "Nc1ccc(-n2c(N)c(C(=O)NCc3ccc4c(c3)OCO4)c3nc4ccccc4nc32)cc1"
Output: 55.5
